TARGET_ENTITY: acetylcholine receptor
TEST_DESCRIPTION: SPR, AchR immobilised on CM5 chip, peptide 10 uM
PARAMETER_MEASURED: Binding affinity (RU)

Check out these entries, answers already filled in.
BINDER | PARAMETER_MEASURED | READOUT_VALUE
RYWVKK [6mer-2-658] | Binding affinity (RU) | 23
REPNRR [6mer-2-644] | Binding affinity (RU) | 12
KFTDRK [6mer-2-706] | Binding affinity (RU) | 23

I. KRYAGR [6mer-1-958]
II. KAHPKK [6mer-2-662]
III. KNADRR [6mer-2-651]
Rank ascending by Binding affinity (RU). Submit the labels in the order that the ranking request calls for.
II, III, I

P. KHHKKK [6mer-2-726]
Q. KYCMKR [6mer-2-631]
Binding affinity (RU) comparison. Which is larger, P or Q ? Let me know the label of the one you choose.
P
(P: 25 RU, Q: 16 RU)

Where these numbers come from: patent US20250011363A1
